Sourced from patent US20150125402A1

# System: Staphylococcus aureus
# TEST DETAILS: Minimum Inhibition Concentration (MIC) screen
# Type: cell-based
# CONDITION SUMMARY: strain ATTC 6538
# Method: To test the compounds as antimicrobial agents, the compounds were screened for activity to inhibit bacteria, yeast and mold. The Minimum Inhibition Concentration (MIC) is determined as the lowest concentration activity to inhibit the microorganism.
For each entry below, report its MIC value.
One number for each entry, in µg/mL.

Below: 3 compounds and their reported MIC.
COMPOUND: CCCCC1CC(C)=CC(O)C1 (stereo not shown)
MIC (µg/mL): 125
--
COMPOUND: CCCCC1CC(=O)C=C(C)C1 (stereo not shown)
MIC (µg/mL): 500
--
COMPOUND: CCCC1CC(=O)C=C(C)C1 (stereo not shown)
MIC (µg/mL): 1000

I'm curious: which MIC was measured for CCCCCCCC1CC(=O)C=C(C)C1 (stereo not shown) tested on Staphylococcus aureus?
15.6
